Values were extracted from paper PMC9170106.

# assay-explanation: PAMPA-BBB permeability
# condition-notes: PAMPA-BBB
value-type: Classification

compound	result
O=C(N/N=C/c1ccc(C(F)(F)F)cc1)NNC(=O)c1ccc(Cl)cc1Cl	CNS+
Cn1c(=O)c2c(ncn2C)n(C)c1=O [Caffeine, reference compound]	CNS -
CCn1cc(C(=O)O)c(=O)c2cc(F)c(N3CCNCC3)nc21 [Enoxacin, reference compound]	CNS -
